- System: velvetleaf (Abutilon theophrasti Medik.) (VL)
- Experiment description: Postemergence herbicide test, foliar spray, velvetleaf
- Assay type: in vivo
- Details: 3000 ppm foliar spray to drip point, treated six days after emergence, two weeks after treatment
Let's look at some compounds and their measured Percent Weed Control VL.
Reported endpoint: Percent Weed Control VL (%)

In [3]: df
Out[3]:
                            smiles_notation  quantitative_readout
0  FC(F)(F)C1=NC(C(F)(F)F)(C(F)(F)F)N=C(c2cccc(Cl)c2)O1                    50
1  FC(F)(F)C(F)(F)C1=NC(C(F)(F)F)(C(F)(F)F)N=C(c2ccc(Cl)cc2)O1                    50
2  Fc1ccc(C2=NC(C(F)(F)F)(C(F)(F)F)N=C(C(F)(F)C(F)(F)F)O2)cc1Cl                    70
3  FC(F)(F)C(F)(F)C1=NC(C(F)(F)F)(C(F)(F)F)N=C(c2cccc(Cl)c2)O1                   100
4  FC(F)(F)C(F)(F)C1=NC(C(F)(F)F)(C(F)(F)F)N=C(c2ccc(Br)cc2)O1                   100

---

- System: barnyardgrass (Echinochloa crus-galli (L.) Beauv.) (BG)
- Experiment description: Preemergence herbicide test, soil drench, barnyardgrass
- Format: in vivo
- Details: Echinochloa crus-galli, 336 h, 10 lbs/A (11.2 kg/ha) soil drench, two weeks after treatment, vs untreated checks, read-out: Percent Weed Control BG
Reported endpoint: pest or weed control at 11208.5 g/ha (%)

>>> print(df.to_string())
                            smiles_notation  quantitative_readout
0  FC(F)(F)C(F)(F)C(F)(F)C1=NC(C(F)(F)F)(C(F)(F)F)N=C(c2ccc(Br)cc2)O1                     0
1  Fc1cc(F)cc(C2=NC(C(F)(F)F)(C(F)(F)F)N=C(C(F)(F)C(F)(F)F)O2)c1                   100
2  Fc1ccc(C2=NC(C(F)(F)F)(C(F)(F)F)N=C(C(F)(F)C(F)(F)F)O2)cc1Cl                   100
3  FC(F)(F)c1cc(C2=NC(C(F)(F)F)(C(F)(F)F)N=C(C(F)(F)C(F)(F)F)O2)cc(C(F)(F)F)c1                   100
4  FC(F)(F)C1=NC(C(F)(F)F)(C(F)(F)F)N=C(c2ccc(Br)cc2)O1                   100
5  Nc1ccc(C2=NC(C(F)(F)F)(C(F)(F)F)N=C(C(F)(F)F)O2)cc1                     0
6  Fc1ccc(C2=NC(C(F)(F)F)(C(F)(F)F)N=C(C(F)(F)C(F)(F)C(F)(F)F)O2)cc1                     0

---

- Test system: green foxtail (Setaria virdis (L.) Beauv.) (GF)
- Experiment description: Preemergence herbicide test, soil drench, green foxtail
- Type: in vivo
- Details: Setaria, 336 h, 10 lbs/A (11.2 kg/ha) soil drench, two weeks after treatment, vs untreated checks, read-out: Percent Weed Control GF
Reported endpoint: pest or weed control at 11208.5 g/ha (%)

>>> print(df.to_string())
                            smiles_notation                     reported_endpoint  quantitative_readout
0  Fc1ccc(C2=NC(C(F)(F)F)(C(F)(F)F)N=C(C(F)(F)C(F)(F)C(F)(F)F)O2)cc1  pest or weed control at 11208.5 g/ha                     0
1  FC(F)(F)C1=NC(C(F)(F)F)(C(F)(F)F)N=C(c2ccc(Br)cc2)O1  pest or weed control at 11208.5 g/ha                   100
2  FC(F)(F)C(F)(F)C1=NC(C(F)(F)F)(C(F)(F)F)N=C(c2cc(Cl)cc(Cl)c2)O1  pest or weed control at 11208.5 g/ha                   100
3  Nc1ccc(C2=NC(C(F)(F)F)(C(F)(F)F)N=C(C(F)(F)F)O2)cc1  pest or weed control at 11208.5 g/ha                    90

src = patent US6514911B1
